target: HLA-A*11:01; assay: IEDB peptide-MHC binding, purified MHC/competitive/radioactivity; filed as Kd, often an IC50 or EC50 that approximates it; bounds were set here for any values at or beyond the usual limits of such assays; conditions: source organism: Lymphocytic choriomeningitis virus (strain Armstrong)
pKd: −log10 of the molar value.
QUANTITY_KIND: pKd

[
  {
    "SEQ": "NYSKFWYLEH",
    "SYSTEM_NAME": "HLA-A*11:01",
    "QUANTITY_KIND": "pKd",
    "LT_GT_EQ": "≤",
    "OBSERVED_MEASUREMENT": 4.16
  },
  {
    "SEQ": "NSESLSLISH",
    "SYSTEM_NAME": "HLA-A*11:01",
    "QUANTITY_KIND": "pKd",
    "LT_GT_EQ": "=",
    "OBSERVED_MEASUREMENT": 5.09
  }
]

====

target: HLA-B*27:05; experiment: IEDB peptide-MHC binding, purified MHC/direct/fluorescence; filed as Kd, often an IC50 or EC50 that approximates it; bounds were set here for any values at or beyond the usual limits of such assays; conditions: source organism: Ebola virus - Mayinga, Zaire, 1976
pKd: −log10 of the molar value.

[
  {
    "SEQ": "FIYFGKKQY",
    "pKd": "≤ 4.70"
  }
]

====

biological target: HLA-B*58:01; assay: IEDB peptide-MHC binding, purified MHC/direct/fluorescence; filed as Kd, often an IC50 or EC50 that approximates it; bounds were set here for any values at or beyond the usual limits of such assays; conditions: source organism: Francisella tularensis subsp. tularensis
pKd: −log10 of the molar value.

[
  {
    "SEQ": "RYSNFAWYF",
    "pKd": "≤ 4.70"
  }
]

====

biological target: HLA-B*53:01; assay: IEDB peptide-MHC binding, purified MHC/competitive/radioactivity; filed as Kd, often an IC50 or EC50 that approximates it; bounds were set here for any values at or beyond the usual limits of such assays; details: source organism: Triticum aestivum
pKd: −log10 of the molar value.
QUANTITY_KIND: pKd

[
  {
    "SEQ": "QPYLQLQPFL",
    "LT_GT_EQ": "≤",
    "OBSERVED_MEASUREMENT": 4.66
  },
  {
    "SEQ": "LPAMCNVYI",
    "LT_GT_EQ": "=",
    "OBSERVED_MEASUREMENT": 7.74
  },
  {
    "SEQ": "LPYPQPQL",
    "LT_GT_EQ": "=",
    "OBSERVED_MEASUREMENT": 4.83
  },
  {
    "SEQ": "QPLSQVSF",
    "LT_GT_EQ": "≤",
    "OBSERVED_MEASUREMENT": 4.43
  }
]

====

biological target: HLA-A*11:01; assay: IEDB peptide-MHC binding, purified MHC/direct/fluorescence; filed as Kd, often an IC50 or EC50 that approximates it; bounds were set here for any values at or beyond the usual limits of such assays; conditions: source organism: Camelpox virus CMS
pKd: −log10 of the molar value.

[
  {
    "SEQ": "HYRPYHYYH",
    "pKd": "≤ 4.70"
  }
]

Cited source for all entries: the Immune Epitope Database (IEDB)
